Sourced from ChEMBL document CHEMBL4270642

# experimental_system: Signal peptidase I (Escherichia coli K-12) (UniProt P00803)
# Sequence (P00803 whole entry): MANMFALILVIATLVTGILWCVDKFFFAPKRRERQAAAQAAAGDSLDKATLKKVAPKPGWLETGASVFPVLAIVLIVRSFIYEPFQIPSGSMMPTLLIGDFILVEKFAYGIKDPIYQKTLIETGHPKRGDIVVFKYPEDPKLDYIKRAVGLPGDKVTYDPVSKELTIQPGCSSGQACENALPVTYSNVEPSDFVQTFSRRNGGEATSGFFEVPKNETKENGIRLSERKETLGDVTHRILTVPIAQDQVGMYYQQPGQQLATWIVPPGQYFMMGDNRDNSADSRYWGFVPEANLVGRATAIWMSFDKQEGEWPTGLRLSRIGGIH
# assay: Inhibition of Escherichia coli type 1 signal peptidase lepB assessed as residual activity at 2.5 uM preincubated for 10 mins followed by Dabcyl-VGGTATAYGAFSRPGLE-(EDANS)-OH substrate addition measured after 2 hrs by FRET based assay (reference value: 100%)
Square brackets hold non-standard residues; d marks the D form. Peptide text beside a SMILES is read from it. * marks the point of attachment. Benzoyl(4-(4-hexylphenyl)) = CCCCCCc1ccc(-c2ccc(C(=O)*)cc2)cc1; X1 = C[C@H](N*)B1OC2C[C@@H]3C[C@@H](C3(C)C)[C@]2(C)O1; boroAla = C[C@H](N*)B(O)O; Orn = NCCC[C@H](N)C(=O)O
recorded_metric: Activity (%)
# value in %; strip the unit string

Worked set:
Prompt: Could you tell me which Activity is on file for CCCCCCc1ccc(-c2ccc(C(=O)N[C@@H](CCCN)C(=O)N[C@H](C(=O)N[C@@H](C)C(=O)N[C@H]3Cc4cn(nn4)CCN4C[C@@H]5OB(O[C@@H]5C4)[C@H](C)NC3=O)[C@@H](C)O)cc2)cc1 ?
Response: 29.8

Prompt: Again, but for CCCCCCc1ccc(-c2ccc(C(=O)N[C@@H](Cc3cnc[nH]3)C(=O)N[C@H](C(=O)N[C@@H](C)C(=O)N[C@H]3Cc4cn(nn4)CCCN4C[C@@H]5OB(O[C@@H]5C4)[C@H](C)NC3=O)[C@@H](C)O)cc2)cc1
Response: 27.8

Next:
Prompt: Entry CCCCCCc1ccc(-c2nc3cc(C(=O)N[C@@H](CCCN)C(=O)N[C@H](C(=O)N[C@@H](C)C(=O)N[C@H]4Cc5cn(nn5)CCO[C@@H]5C[C@@H]6OB(O[C@@H]6C5)[C@H](C)NC4=O)[C@@H](C)O)ccc3[nH]2)cc1 has what Activity?
Response: 2.8

Prompt: For CCCCCCc1ccc(-c2ccc(C(=O)N[C@@H](CCCN)C(=O)N[C@H](C(=O)N[C@@H](C)C(=O)N[C@@H](CC(N)=O)C(=O)N[C@@H](C)B(O)O)[C@@H](C)O)cc2)cc1 ({Benzoyl(4-(4-hexylphenyl))}-[Orn]TAN-boroAla) then?
Response: 8.8

Prompt: Consider next the molecule CCCCCCc1ccc(-c2c[nH]c3ccc(C(=O)N[C@@H](CCCN)C(=O)N[C@H](C(=O)N[C@@H](C)C(=O)N[C@H]4Cc5cn(nn5)CCO[C@@H]5C[C@@H]6OB(O[C@@H]6C5)[C@H](C)NC4=O)[C@@H](C)O)cc23)cc1 in the same way.
Response: 2.9

Prompt: Then what about the molecule C[C@@H]1NC(=O)[C@@H](NC(=O)[C@H](C)NC(=O)[C@@H](NC(=O)[C@H](CCCN)NC(=O)C#Cc2ccc(-c3ccccc3)cc2)[C@@H](C)O)Cc2cn(nn2)CCO[C@@H]2C[C@@H]3OB1O[C@@H]3C2 ?
Response: 17.8

Prompt: Another molecule to check: CCCCCCc1ccc(-c2ccc(C(=O)N[C@@H](CCCN)C(=O)N[C@H](C(=O)N[C@@H](C)C(=O)N[C@@H](CC(N)=O)C(=O)N[C@@H](C)B3OC4C[C@@H]5C[C@@H](C5(C)C)[C@]4(C)O3)[C@@H](C)O)cc2)cc1 (some centres not stated) ({Benzoyl(4-(4-hexylphenyl))}-[Orn]TAN-X1)
Response: -0.2
